test: Metabolic stability in human liver S-9 fractions (LC/MS of parent remaining); details: % parent remaining after 30 min at 37 C divided by average % ranolazine remaining (57%); 10 μM compound, 2 mg/mL S9
VALUE_TYPE: Liver S-9 stability factor

>  <MOLECULE>
Cc1cccc(C)c1NC(=O)CN1CCN(CC(O)Cc2ccccc2)CC1 (stereo not drawn)

>  <Liver S-9 stability factor>
1.38

$$$$
>  <MOLECULE>
COc1ccccc1OCC(O)CN1CCN(CC(=O)Nc2c(C)cccc2C)CC1 (racemic) [Ranolazine, reference compound]

>  <Liver S-9 stability factor>
1.0

$$$$
>  <MOLECULE>
COc1cc(CC(O)CN2CCN(CC(=O)Nc3c(C)cccc3C)CC2)cc(OC)c1OC (stereo not drawn)

>  <Liver S-9 stability factor>
1.05

$$$$
>  <MOLECULE>
COc1ccc(CC(O)CN2CCN(CC(=O)Nc3c(C)cccc3C)CC2)cc1 (stereo not drawn)

>  <Liver S-9 stability factor>
1.33

$$$$

[P] Cc1cccc(C)c1NC(=O)C(C)(C)N1CCN(CC(O)Cc2ccccc2)CC1 (stereo not drawn)
[Q] Cc1cccc(C)c1NC(=O)CN1CCN(CC(O)Cc2cccc3ccccc23)CC1 (stereo not drawn)
[R] Cc1cccc(C)c1NC(=O)C(C)(C)N1CCN(CC(O)Cc2ccc3c(c2)OCO3)CC1 (stereo not drawn)
Order by Liver S-9 stability factor, ascending. # list labels per requested ordering
Q, P, R

[a] Cc1cccc(C)c1NC(=O)CN1CCN(CC(O)CCc2ccccc2Cl)CC1 (stereo not drawn)
[b] COc1ccccc1CC(O)CN1CCN(CC(=O)Nc2c(C)cccc2C)CC1 (stereo not drawn)
Liver S-9 stability factor comparison. Which is larger, a or b ? Identify your selection by its label.
b

###

test: Metabolic stability in human liver S-9 fractions (LC/MS of parent remaining); settings: % parent remaining after 30 min at 37 C divided by average % ranolazine remaining (57%); 10 μM compound, 2 mg/mL S9
VALUE_TYPE: Liver S-9 stability factor

>  <COMPOUND>
Cc1cccc(C)c1NC(=O)CN1CCN(CC(O)CCc2ccccc2)CC1 (stereo not drawn)

>  <VALUE_TYPE>
Liver S-9 stability factor

>  <ASSAY_RESULT>
1.18

$$$$

[I] Cc1cccc(C)c1NC(=O)CN1CCN(CC(O)CCc2c(F)cccc2F)CC1 (stereo not drawn)
[II] Cc1cccc(C)c1NC(=O)CN1CCN(CC(O)Cc2ccc3c(c2)OCO3)CC1 (stereo not drawn)
I need your help: which of the pair I , II has higher Liver S-9 stability factor? Identify your pick by its label.
II

The measured values listed here are drawn from patent US6852723B2.
